- Test system: SK-MEL-5 melanoma
- METHOD: NCI tumour cell line growth inhibition, 48 h; in the data active = GI50 below about 0.43 µM; inactive = the rest
Outcome codes: True (active), False (inactive)

• Clc1ccc2c(NCCCNc3nccc(Nc4ccc(Br)cc4)n3)ccnc2c1 = False
• C=C(C=O)C1CCC2(C(=O)O)CCC3(C)C(CCC4C5(C)CCC(O)C(C)(C)C5CCC43C)C12 (configuration not stated) = False
• O=S(=O)([O-])c1ccc2c(c1)-c1nc-2nc2[n-]c(nc3nc(nc4[n-]c(n1)c1ccc(S(=O)(=O)[O-])cc41)-c1cc(S(=O)(=O)[O-])ccc1-3)c1ccc(S(=O)(=O)[O-])cc21.[Cu+2].[Na+] = False
• Cn1c(=O)c2c(nc(Nc3cc(=O)[nH]c(=O)[nH]3)n2Cc2ccccc2)n(C)c1=O = False
• Cc1ccc2c(n1)C(=O)c1[nH]c3ccccc3c1C2=O = True
• Cc1ccc(C(SCC(N)C(=O)O)(c2ccccc2)c2ccc(C)cc2)cc1 (configuration not stated) = True
• CNCCNc1c2c(c(NCCNC)c3c(CN(C)C)c[nH]c13)C(=O)c1ccccc1C2=O = False
• COC(=O)/C=C/c1cc(O)c2oc(-c3ccc(O)c(O)c3)c(C(=O)OC)c2c1 = True
• COc1ccc(C(=O)c2cc(OC)c(C)c(OC)c2)cc1OC(=O)CCl = False
• Ic1ccc(Nc2nc3nonc3nc2Nc2ccc(I)cc2)cc1 = True
• COc1ccc(C2CC(c3cccc(Nc4ccncc4)c3)=NN2c2cc(Cl)cc(Cl)c2)cc1 (configuration not stated) = False
• O=[N+]([O-])c1ccc(C=C2C(Cl)=C(Cl)C(Cl)=C2Cl)cc1 = False
• CC(C)(C)C(=O)OCOP(=O)(OCOC(=O)C(C)(C)C)C1CCCN(O)C1=O (configuration not stated) = True
• Oc1ccc(Cl)cc1Cc1cc(Cl)cc(Cl)c1O = False
• COc1ccc(N(C)c2ncnc3occ(C)c23)cc1 = True
• CC(SC(C)C(=O)N/N=C/c1cccc(Cl)c1)C(=O)N/N=C\c1cccc(Cl)c1 (configuration not stated) = False
• O=C(OCc1ccc2cccc(O)c2n1)N1CCN(C(=O)c2cc3cc(F)ccc3[nH]2)CC1 = False

* * *

- Test system: CCRF-CEM leukemia
- METHOD: NCI tumour cell line growth inhibition, 48 h; in the data active means GI50 below about 0.43 µM; inactive means the rest
Outcome codes: active, inactive

• CCC[CH2][Ge]([CH2]CCC)([CH2]CCC)[O]C(=O)CC(=O)c1ccccc1 = active
• Ic1ccc(Nc2nc3nonc3nc2Nc2ccc(I)cc2)cc1 = active
• C=C(F)C(=O)N1CCN(c2nc(OC[C@@H]3CCCN3C)nc3c2CCN(c2cccc4cccc(Cl)c24)C3)C[C@@H]1CC#N = inactive
• COC(=O)c1cc2c(cc1O)[C@@H](NC(C)=O)CCc1cc(OC)c(OC)c(OC)c1-2 = active
• CNCCCn1cc(C2=C(c3cn(C)c4ccccc34)C(=O)NC2=O)c2ccccc21 = inactive
• CCOC(=O)/C=C/C(C(=O)/C=C/c1ccc(OC2CCCCO2)c(OC)c1)=C(O)\C=C\c1ccc(OC2CCCCO2)c(OC)c1 (stereo unspecified) = inactive
• COc1ccc(C2CC(c3cccc(Nc4ccncc4)c3)=NN2c2cc(Cl)cc(Cl)c2)cc1 (stereo unspecified) = inactive
• Oc1ccc(Cl)cc1Cc1cc(Cl)cc(Cl)c1O = inactive
• C=C(C=O)C1CCC2(C(=O)O)CCC3(C)C(CCC4C5(C)CCC(O)C(C)(C)C5CCC43C)C12 (stereo unspecified) = inactive
• CC1OC2CC(=O)OC2C2=C1C(=O)c1c(O)cccc1C2=O (stereo unspecified) = active
• CC(=O)O.CC(=O)O.CC(=O)O.CC(=O)O.CC(=O)O.CC(=O)O.O.[Ti].[Ti] = inactive
• COc1ccc(C(=O)c2cc(OC)c(C)c(OC)c2)cc1OC(=O)CCl = active
• O=C1NC(=Nc2ccccc2)S/C1=C\c1ccc2ncccc2c1 = inactive
• CC(=O)OC1Oc2ccccc2-c2oc(=O)c(-c3cc(=O)oc4cc(O)ccc34)cc21 (stereo unspecified) = inactive
• CNCCNc1c2c(c(NCCNC)c3c(CN(C)C)c[nH]c13)C(=O)c1ccccc1C2=O = inactive
• CC(C)(C)C(=O)OCOP(=O)(OCOC(=O)C(C)(C)C)C1CCCN(O)C1=O (stereo unspecified) = active

* * *

- System: NCI/ADR-RES ovarian
- METHOD: NCI tumour cell line growth inhibition, 48 h
Quick reference: TGI of the listed items.
READOUT: TGI (µM)

• C=C(C)[C@@]12OC3(/C=C/C=C/CCCCC)O[C@@H]1[C@@H]1[C@@H]4O[C@]4(CO)[C@@H](O)[C@]4(O)C(=O)C(C)=C[C@H]4[C@@]1(O3)[C@H](C)[C@H]2OC(=O)c1ccccc1 = 8.9
• Oc1ccc(Cl)cc1Cc1cc(Cl)cc(Cl)c1O = 10
• CNCCNc1c2c(c(NCCNC)c3c(CN(C)C)c[nH]c13)C(=O)c1ccccc1C2=O = 40.2
• C#Cc1cccc(Nc2ncnc3cc(OC)c(OCCCCCCC(=O)NO)cc23)c1 = 6.91
• COc1ccc(C(=O)c2cc(OC)c(C)c(OC)c2)cc1OC(=O)CCl = 4.38

* * *

- Tested on: MALME-3M melanoma
- METHOD: NCI tumour cell line growth inhibition, 48 h; in the data active means GI50 below about 0.43 µM; inactive means the rest
Outcome codes: active, inactive

- O=[N+]([O-])c1ccc(C=C2C(Cl)=C(Cl)C(Cl)=C2Cl)cc1: inactive
- C=CC1CC12C(=O)C1OC2(C)C2C(=O)c3cc4ccccc4cc3C(=O)C12 (centres undefined): inactive
- O=S(=O)(Nc1cc(F)cc(Cl)c1)c1ccc(-c2cnc(C3CC3)o2)cc1: inactive
- Cn1c(=O)c2c(nc(Nc3cc(=O)[nH]c(=O)[nH]3)n2Cc2ccccc2)n(C)c1=O: inactive
- C=C(C=O)C1CCC2(C(=O)O)CCC3(C)C(CCC4C5(C)CCC(O)C(C)(C)C5CCC43C)C12 (centres undefined): inactive
- COc1cc(Nc2cn[nH]c2-c2ccc(Cl)cc2)cc(OC)c1OC: inactive
- COc1ncnc(C2CC2)c1-c1ncc2cnn(Cc3ccc(-c4nc(C(F)(F)F)cn4C(C)C)cc3)c2n1: inactive
- O=C1NC(=Nc2ccccc2)S/C1=C\c1ccc2ncccc2c1: inactive
- CC(C)=C[C@@H]1C[C@H](C)[C@H]2CC[C@H](C)C3=C2[C@](O)(OC3=O)[C@]1(C)O: inactive
- COc1ccc2c(c1)CCC1C2CC[C@@]2(C)C1CC1=CC(COC(C)=O)C3C(=O)c4ccccc4C(=O)C3C12 (some centres undefined): inactive
- COc1ccc(N(C)c2ncnc3occ(C)c23)cc1: inactive
- Ic1ccc(Nc2nc3nonc3nc2Nc2ccc(I)cc2)cc1: active
- NCCCNc1nc2ccccc2c2c(=O)c3cc(OC(F)(F)F)ccc3sc12: inactive
- NC(=NCCCOc1ccc(Cl)cc1)Nc1ccc(C(F)(F)F)cc1: inactive
- Cn1cc(C2=C(c3ccc4ccccc4c3)C(=O)NC2=O)c2ccccc21: inactive
- CC(C)c1ccc(Nc2ccc3c(OCCCN4CCN(C)CC4)cccc3n2)cc1: inactive
- O=C(c1ccccc1)c1cc(Cl)ccc1OCCCCN1CCN(CCCCOc2ccc(Cl)cc2C(=O)c2ccccc2)CC1: inactive
- COc1ccc(N2C(=O)C(c3ccccc3)(c3ccccc3)C23C(=O)N(C)c2ccccc23)cc1 (centres undefined): inactive
- O=S(=O)([O-])c1ccc2c(c1)-c1nc-2nc2[n-]c(nc3nc(nc4[n-]c(n1)c1ccc(S(=O)(=O)[O-])cc41)-c1cc(S(=O)(=O)[O-])ccc1-3)c1ccc(S(=O)(=O)[O-])cc21.[Cu+2].[Na+]: inactive

* * *

- Tested on: HCT-15 colon
- METHOD: NCI tumour cell line growth inhibition, 48 h
Quick reference: GI50 of the listed items.
READOUT: GI50

• CCC[CH2][Ge]([CH2]CCC)([CH2]CCC)[O]C(=O)CC(=O)c1ccccc1 = 0.316 µM
• CC(O)C(N=Cc1ccccc1[O-])C(=O)[O-].CC(O)C(N=Cc1ccccc1[O-])C(=O)[O-].[Co+2] (centres undefined) = > 100 µM
• C[C@H]1c2cccc(O)c2C(O)=C2C(=O)[C@]3(O)C(O)=C(C(N)=O)C(=O)[C@@H](N(C)C)[C@@H]3[C@@H](O)[C@@H]21 = 3.46 µM
• COC(=O)/C=C/c1cc(O)c2oc(-c3ccc(O)c(O)c3)c(C(=O)OC)c2c1 = 0.0672 µM

* * *

- Tested on: SF-268 CNS
- METHOD: NCI tumour cell line growth inhibition, 48 h; in the data active = GI50 below about 0.43 µM; inactive = the rest
Outcome codes: active, inactive

- Cc1nc(N)sc1-c1ccnc(Nc2ccc(N3CCOCC3)cc2)n1: inactive
- Ic1ccc(Nc2nc3nonc3nc2Nc2ccc(I)cc2)cc1: active
- COC(=O)c1cc2c(cc1O)[C@@H](NC(C)=O)CCc1cc(OC)c(OC)c(OC)c1-2: inactive
